- experimental target: CD94/NKG2C (Homo sapiens, UniProt P26717+Q13241)
- Sequence (P26717 94-231 limits assumed): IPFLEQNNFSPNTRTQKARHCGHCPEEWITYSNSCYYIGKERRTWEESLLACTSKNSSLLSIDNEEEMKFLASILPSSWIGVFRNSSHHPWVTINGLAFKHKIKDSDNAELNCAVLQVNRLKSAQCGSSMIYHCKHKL
- Sequence (Q13241 32-179 limits assumed): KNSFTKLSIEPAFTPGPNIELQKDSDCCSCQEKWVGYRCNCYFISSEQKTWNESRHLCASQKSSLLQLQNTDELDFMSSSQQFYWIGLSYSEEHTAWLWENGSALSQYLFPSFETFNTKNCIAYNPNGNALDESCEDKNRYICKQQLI
- method summary: Steady-state surface plasmon resonance of peptide-HLA-E complex with CD94/NKG2C
- Assay type: binding
- measurement context: CD94/NKG2C concentration 6.4 μM
Where no end group is shown, it is not given here.
Reported values of binding of peptide-HLA-E complex to CD94/NKG2C normalized to a fitted Rmax for individual entries
Write the value as a bare number.

These recorded examples may help you get a feel for the data.
sequence record | result number
TLPKRGLFL [human2, TLPKRGLFL] | 0.281
TGPWRSLWI [human3, TGPWRSLWI] | 0.078
VNPGRSLFL [human5, VNPGRSLFL] | 0.795

Data request: Lookup: binding of peptide-HLA-E complex to CD94/NKG2C normalized to a fitted Rmax / CD94/NKG2C (Homo sapiens, UniProt P26717+Q13241) / TAPARTMFL [human13, TAPARTMFL]
Data returned: 0.317

Data request: QMPSRSLLF [human1, QMPSRSLLF] , same question.
Data returned: 0.394

###

- Test system: NKG2A−/NKG2C+ NK cells
- method summary: NK cell activation markers in NKG2A-/NKG2C+ NK cells incubated with peptide and K562 expressing HLA-E (activation)
- Format: cell-based, human
- measurement context: NKG2A-/NKG2C+ NK cells, K562/HLA-E, Trial 3
Where no end group is shown, it is not given here.
readout label: percentage of IFNG+ NK cells (%)
Give the value in % but do not write % after it.

Please review the entries below; each comes with its answer.
sequence record | endpoint unit | percentage of IFNG+ NK cells
VNPGRSLFL [human5, VNPGRSLFL] | % | 57.2
TAPARTMFL [human13, TAPARTMFL] | % | 49.2
VLPHRTQFL [CMV1, novel CMV-derived peptide UL120 72-80, Merlin] | % | 78.5
VMAPRTLIL [VMAPRTLIL (LIL), positive control peptide, reference compound] | % | 78.1

Data request: # input sequence: QMPSRSLLF [human1, QMPSRSLLF] ; wanted: its percentage of IFNG+ NK cells
Data returned: 80.5

Data request: Then what about the sequence TGPWRSLWI [human3, TGPWRSLWI] ?
Data returned: 55.4

###

- experimental target: CD94/NKG2C (Homo sapiens, UniProt P26717+Q13241)
- method summary: Steady-state surface plasmon resonance of peptide-HLA-E complex with CD94/NKG2C
- Type: binding
- measurement context: steady-state SPR; CD94/NKG2C analyte concentration 25.6 μM
Where no end group is shown, it is not given here.
readout label: Binding of peptide-HLA-E complexes to CD94/NKG2C normalized to a theoretical Rmax
Form field (numeric): enter value without unit.

Solved entries:
sequence record | experimental target | result number
VNPGRSLFL [human5, VNPGRSLFL] | CD94/NKG2C (Homo sapiens, UniProt P26717+Q13241) | 0.359
QMPSRSLLF [human1, QMPSRSLLF] | CD94/NKG2C (Homo sapiens, UniProt P26717+Q13241) | 0.444
TAPARTMFL [human13, TAPARTMFL] | CD94/NKG2C (Homo sapiens, UniProt P26717+Q13241) | 0.454
TLPKRGLFL [human2, TLPKRGLFL] | CD94/NKG2C (Homo sapiens, UniProt P26717+Q13241) | 0.457

Data request: Returns the measured Binding of peptide-HLA-E complexes to CD94/NKG2C normalized to a theoretical Rmax for the input sequence. Input: TGPWRSLWI [human3, TGPWRSLWI]
Data returned: 0.084

###

Measured percentage of IFNG+ NK cells accompanies every entry in the list below.
- Test system: NKG2A+/NKG2C− NK cells
- method summary: NK cell activation markers in NKG2A+/NKG2C- NK cells incubated with peptide and K562 expressing HLA-E (inhibition)
- Assay type: cell-based, human
- measurement context: NKG2A+/NKG2C- NK cells, K562/HLA-E, Trial 5
Where no end group is shown, it is not given here.
Please answer using the number first and the unit second.

Worked examples follow.
sequence record | experimental target | result
TGPWRSLWI [human3, TGPWRSLWI] | NKG2A+/NKG2C− NK cells | 19.2%
FLPNRSLLF [human8, peptide SLC52A3 354-362 derived from the human proteome] | NKG2A+/NKG2C− NK cells | 7.1%
TLPERTLYL [human7, peptide ECEL1 269-277 derived from the human proteome] | NKG2A+/NKG2C− NK cells | 0.28%
VMAPRTLIL [VMAPRTLIL (LIL), positive control peptide, reference compound] | NKG2A+/NKG2C− NK cells | 0.06%

Next up:
Data request: Tell me the measured percentage of IFNG+ NK cells of TAPARTMFL [human13, TAPARTMFL] , please.
Data returned: 16.9%

###

- experimental target: HLA-E (Homo sapiens)
- Construct: expressed in transfected cells; host or cells: RMA-S/HLA-E cells (antigen processing-defective lymphoma cell line)
- Sequence (P13747 22-358): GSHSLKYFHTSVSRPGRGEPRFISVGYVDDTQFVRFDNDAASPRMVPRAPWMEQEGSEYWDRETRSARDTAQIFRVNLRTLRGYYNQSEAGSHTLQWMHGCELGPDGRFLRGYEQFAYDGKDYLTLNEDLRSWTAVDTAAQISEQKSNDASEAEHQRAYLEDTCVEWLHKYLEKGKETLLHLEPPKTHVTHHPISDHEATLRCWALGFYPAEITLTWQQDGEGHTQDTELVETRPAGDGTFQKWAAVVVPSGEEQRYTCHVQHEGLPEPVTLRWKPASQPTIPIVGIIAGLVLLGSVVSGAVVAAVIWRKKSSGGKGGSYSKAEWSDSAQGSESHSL
- Sequence (P61769 21-119 partner): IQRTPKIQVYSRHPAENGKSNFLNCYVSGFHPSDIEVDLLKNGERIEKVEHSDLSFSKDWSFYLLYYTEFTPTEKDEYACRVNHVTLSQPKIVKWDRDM
- method summary: HLA-E surface stabilization assay with RMA-S/HLA-E cells
- Type: cell-based
- measurement context: 30 μM peptide, 16 hours, anti-HLA-E antibody, Trial 4
Where no end group is shown, it is not given here.
readout label: HLA-E surface expression stability (GeoMFI)
Give just the number in GeoMFI; leave the unit off.

Data request: Please look up its HLA-E surface expression stability (GeoMFI): NMPARTVLF [human14, peptide MTREX 490-498 derived from the human proteome]
Data returned: 1738

Data request: Param item: VNPGRSLFL [human5, VNPGRSLFL]
Data returned: 750

Data request: Next up: TLPERTLYL [human7, peptide ECEL1 269-277 derived from the human proteome]
Data returned: 4464

Data request: Continue with FLPNRSLLF [human8, peptide SLC52A3 354-362 derived from the human proteome]
Data returned: 1654

Data request: Check VLPHRTQFL [CMV1, novel CMV-derived peptide UL120 72-80, Merlin] too.
Data returned: 2421

Data request: Subsequent entry: ILTDRSLWL [human4, peptide FBXO41 670-678 derived from the human proteome]
Data returned: 1378

Data request: Same thing, different sequence: TAPARTMFL [human13, TAPARTMFL]
Data returned: 1187

Data request: Next: QMPSRSLLF [human1, QMPSRSLLF]
Data returned: 2496

Data request: What about VMPPRTLLL [human15, peptide HLA-A 3-11 derived from the human proteome] ?
Data returned: 4760

###

- Tested on: NKG2A−/NKG2C− NK cells
- method summary: NK cell activation markers in control NKG2A-/NKG2C- NK cells incubated with peptide and K562 expressing HLA-E
- Type: cell-based, human
- measurement context: Trial 2
Where no end group is shown, it is not given here.
Measured percentage CCL3+ NK cells, listed per entry.
Use % as the unit, but write only the number.

Example cases with answers are listed next.
sequence record | experimental target | percentage CCL3+ NK cells [%]
VMPPRTLLL [human15, peptide HLA-A 3-11 derived from the human proteome] | NKG2A−/NKG2C− NK cells | 55.5
VNPGRSLFL [human5, VNPGRSLFL] | NKG2A−/NKG2C− NK cells | 55.5
QMPSRSLLF [human1, QMPSRSLLF] | NKG2A−/NKG2C− NK cells | 59.6
ILTDRSLWL [human4, peptide FBXO41 670-678 derived from the human proteome] | NKG2A−/NKG2C− NK cells | 56.3
FLPNRSLLF [human8, peptide SLC52A3 354-362 derived from the human proteome] | NKG2A−/NKG2C− NK cells | 60.3
TAPARTMFL [human13, TAPARTMFL] | NKG2A−/NKG2C− NK cells | 65.4
VMAPQSLLL [VMAPQSLLL (PQS), negative control peptide, reference compound] | NKG2A−/NKG2C− NK cells | 57.7
TGPWRSLWI [human3, TGPWRSLWI] | NKG2A−/NKG2C− NK cells | 61

Data request: Bench note: what percentage CCL3+ NK cells did VMAPRTLIL [VMAPRTLIL (LIL), positive control peptide, reference compound] show?
Data returned: 54

Data request: Let us now turn to RMPPRSVLL [human12]
Data returned: 51.6

Data request: Try VLPHRTQFL [CMV1, novel CMV-derived peptide UL120 72-80, Merlin] next.
Data returned: 52.4

Data request: Input TLPKRGLFL [human2, TLPKRGLFL]
Data returned: 57.4

Data request: Input TLPERTLYL [human7, peptide ECEL1 269-277 derived from the human proteome]
Data returned: 49.5

Data request: Next sequence up: VMPGRTLCF [human11, peptide TACR3 226-234 derived from the human proteome]
Data returned: 49.5

Data request: NMPARTVLF [human14, peptide MTREX 490-498 derived from the human proteome] , same question.
Data returned: 54.7
